As shown below, each of these compounds has a reported Inhibition value.
Test system: HepG2
assay.text: GSK_TCMDC: Percent inhibition of human HepG2 cell line. Test compounds present at 10uM.
Type: functional
Could you give me the number in %? Just the number is fine.

Solved cases below.
- compound: "Cc1cc(NC(=O)Nc2ccc(C(C)(C)C)cc2)c2ccccc2n1"
  numeric.readout: 0
- compound: "O=C(Nc1cccc(-c2nn3ccccc3c2-c2ccnc(Nc3ccccc3)n2)c1)c1c(F)cccc1F"
  numeric.readout: 69
- compound: "C[C@H]1CN(Cc2cccc(-c3cc(CNC(=O)c4cccc(C(=O)c5ccc(Cl)c(Cl)c5)c4)ccc3F)c2)CCN1"
  numeric.readout: 40
- compound: "Br.CCN(CC)CCn1c(=N)n(CC(=O)c2ccc(-c3ccccc3)cc2)c2ccccc21"
  numeric.readout: 32
- compound: "OC(c1ccc2ccccc2c1)C1CN(CCc2ccccc2)CCC1(O)c1ccccc1 (centres undefined)"
  numeric.readout: 1

Task: Given the compound COc1cc2c(cc1S(=O)(=O)c1ccc(NC(=O)Nc3ccc(F)cc3)cc1)CCN(C)CC2.Cl , write its reported Inhibition.
Result: 0

Task: Given the compound O=C(Nc1ccc(Br)c(Cl)c1)c1cc([N+](=O)[O-])cc2cn[nH]c12 , write its reported Inhibition.
Result: 49

Task: Given the compound O=C(O)C(F)(F)F.c1cncc(CCNCc2ccc(-c3ccc(-c4nc5ccccc5[nH]4)s3)cc2)c1 , write its reported Inhibition.
Result: 35

Task: Given the compound O=C(Nc1cccc(CN2CCCN(Cc3ccc(F)cc3)CC2)c1)c1cc2ccccc2s1.O=C(O)C(F)(F)F , write its reported Inhibition.
Result: 29

====

Test system: HepG2
assay.text: GSK_TCMDC: Percent inhibition of human HepG2 cell line. Test compounds present at 10uM.
Assay type: functional
property.measured: Inhibition (%)
Could you give me the number in %? Just the number is fine.

Solved cases below.
- compound: "CCN(CC)CCCNc1nccc(N(C)c2ccc(NC(=O)Nc3cc(C(F)(F)F)ccc3F)cc2)n1.O=C(O)C(F)(F)F"
  numeric.readout: 96
- compound: "CN(CCNCc1ccc(-c2cccc(-c3nc4ccccc4[nH]3)c2)cc1)S(C)(=O)=O.O=C(O)C(F)(F)F"
  numeric.readout: 9
- compound: "CCOc1cc(C)ccc1C1CCN(CCCCNC(=O)c2coc(-c3ccc(Cl)cc3)c2)CC1.Cl"
  numeric.readout: 34
- compound: "O=C(CSc1nnc(O)n1Cc1ccccc1)Nc1ccccc1-c1ccccc1"
  numeric.readout: 0
- compound: "CCc1c(CCNCCCCCCNCCc2ccccc2)ccc(OC)c1OC.Cl"
  numeric.readout: 33
- compound: "Nc1nc(N)c2c(Oc3cccc4ccccc34)cccc2n1"
  numeric.readout: 42
- compound: "CCc1ccc(NC(=O)C=NNC(=N)N)cc1.O=S(=O)(O)O"
  numeric.readout: 13
- compound: "NCC1CCCN1Cc1cccc(-c2ccc(-c3nc4cc(C(F)(F)F)ccc4[nH]3)s2)c1.O=C(O)C(F)(F)F (configuration not stated)"
  numeric.readout: 17

Attention now turns to another entry.
Task: Given the compound CC1CCN(CCNC(=O)c2ccc3c(=O)n(Cc4ccc(Cl)cc4)c(=S)[nH]c3c2)CC1 , write its reported Inhibition.
Result: 6

====

Test system: Plasmodium falciparum
assay.text: GSK_TCMDC: Inhibition of Plasmodium falciparum Dd2 in whole red blood cells, using parasite LDH activity as an index of growth. Test compounds present at 2uM
Assay type: functional
property.measured: Inhibition (%)
Could you give me the number in %? Just the number is fine.

Solved cases below.
- compound: "Cl.Clc1ccc2c(N3CCN(CCN4CCN(c5ccnc6cc(Cl)ccc56)CC4)CC3)ccnc2c1"
  u: "%"
  Inhibition: 100
- compound: "O=C(NCCCCN1CCC(c2ccc3c(c2OCCN2CCCC2)CCCC3)CC1)c1ccc(-c2ccc(C(F)(F)F)cc2)cc1"
  u: "%"
  Inhibition: 81
- compound: "COc1ccc(NC(=O)C2c3ccccc3C(=O)N(C3CCCC3)C2c2cccs2)cc1OC (centres undefined)"
  u: "%"
  Inhibition: 96
- compound: "Br.CC1(C)NC(N)=NC(=N)N1OCCCOc1ccccc1Cl"
  u: "%"
  Inhibition: 94

Task: // output Inhibition; input COc1cccc(C2=CC(C)(C)Oc3cc(OCCN(C)C)ccc32)c1.Cl ; system Plasmodium falciparum
Result: 96

Task: // output Inhibition; input COc1cc(NC(=O)c2sc(-c3ccc(Cl)cc3)cc2NC(=O)c2cccnc2)ccc1OCCN1CCCC1 ; system Plasmodium falciparum
Result: 77

Task: // output Inhibition; input Cc1cccc2nc(-c3ccc(-c4ccc(CNCc5ccc(CN)cc5)cc4)s3)[nH]c12.O=C(O)C(F)(F)F ; system Plasmodium falciparum
Result: 85

Task: // output Inhibition; input CN(Cc1cccc(O)c1)C1CCN(c2cc(NC(=O)c3ccc(F)cc3)ccn2)C1.O=C(O)C(F)(F)F (centres undefined) ; system Plasmodium falciparum
Result: 6

Task: // output Inhibition; input O=c1ccc(CNc2nc(NCCc3ccccc3)nc3cc(Cl)ccc23)c[nH]1 ; system Plasmodium falciparum
Result: 78
